TGT: Coagulation factor X (Homo sapiens, UniProt P00742)
Sequence (P00742 41-179 limits assumed): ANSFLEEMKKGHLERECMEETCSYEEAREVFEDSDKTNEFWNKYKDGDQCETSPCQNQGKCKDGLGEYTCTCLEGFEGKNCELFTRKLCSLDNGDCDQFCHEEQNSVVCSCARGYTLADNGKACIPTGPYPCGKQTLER
Sequence (P00742 235-488 limits assumed): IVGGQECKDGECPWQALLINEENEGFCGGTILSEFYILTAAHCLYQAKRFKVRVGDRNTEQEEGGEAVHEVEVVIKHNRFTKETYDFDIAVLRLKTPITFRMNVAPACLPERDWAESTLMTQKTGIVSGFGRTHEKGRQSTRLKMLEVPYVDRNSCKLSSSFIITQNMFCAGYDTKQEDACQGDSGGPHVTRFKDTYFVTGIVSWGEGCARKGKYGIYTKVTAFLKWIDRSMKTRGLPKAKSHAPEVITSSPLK
MEASUREMENT TYPE: Ki (nM)

COMPOUND | UNIT TAG | VAL
COC(=O)C1C/C(=C/c2ccc(C(=N)N)cc2)C(=O)/C(=C\c2ccc(C(=N)N)cc2)C1 (stereo not given) | nM | 4.8
N=C(N)c1ccc(/C=C2/CCC/C(=C/c3ccc(C(=N)N)cc3)C2=O)cc1 | nM | 18

1: CCOC(=O)N1C/C(=C/c2ccc(C(=N)N)cc2)C(=O)/C(=C/c2ccc(C(=N)N)cc2)C1
2: CN(C)C(=N)c1ccc(/C=C2/CCCC/C(=C/c3ccc(C(=N)N(C)C)cc3)C2=O)cc1
In: Sorting ascending by Ki, which comes first: 1 or 2 ? // output: label of the selected item
Out: 1

---

TGT: Serine protease 1 (Bos taurus, UniProt P00760)
TEST DESCRIPTION: In vitro inhibition of bovine trypsin(Trp).
MEASUREMENT TYPE: Ki (nM)

Study these solved cases before continuing.
COMPOUND | TGT | Ki, nM
N=C(N)c1ccc(/C=C2/CC(c3ccccc3)C/C(=C/c3ccc(C(=N)N)cc3)C2=O)cc1 (centres undefined) | Serine protease 1 (Bos taurus, UniProt P00760) | 100
COC(=O)C1C/C(=C\c2ccc(C(=N)N)cc2)C(=O)/C(=C/c2ccc(C(=N)N)cc2)C1 (centres undefined) | Serine protease 1 (Bos taurus, UniProt P00760) | 72
N=C(N)c1ccc(/C=C2/CCC/C(=C\c3ccc(C(=N)N)cc3)C2=O)cc1 | Serine protease 1 (Bos taurus, UniProt P00760) | 260

A: CCOC(=O)N1C/C(=C\c2ccc(C(=N)N)cc2)C(=O)/C(=C/c2ccc(C(=N)N)cc2)C1
B: N=C(N)c1ccc(/C=C2/CCCCCCC/C(=C\c3ccc(C(=N)N)cc3)C2=O)cc1
C: N=C(N)c1ccc(/C=C2\CCCCCCC/C(=C\c3ccc(C(=N)N)cc3)C2=O)cc1
In: Please rank these compounds by Ki in descending order. Lab note: record answer as labels in requested order.
Out: C, B, A

---

Entries below carry reported pKi on Prothrombin (Homo sapiens, UniProt P00734).
pKi: −log10 of the molar value.

Below are worked cases with known answers.
COMPOUND | TGT | MEASUREMENT TYPE | VAL
N=C(N)c1ccc(/C=C2\CCCC/C(=C\c3ccc(C(N)=O)cc3)C2=O)cc1 | Prothrombin (Homo sapiens, UniProt P00734) | pKi | < 6.30
CN(C)C(=N)c1ccc(/C=C2\CCCC/C(=C\c3ccc(C(=N)N(C)C)cc3)C2=O)cc1 | Prothrombin (Homo sapiens, UniProt P00734) | pKi | < 5.30
CN(C)C(=N)c1ccc(/C=C2/CCCC/C(=C/c3ccc(C(=N)N(C)C)cc3)C2=O)cc1 | Prothrombin (Homo sapiens, UniProt P00734) | pKi | < 5.30

Here is the next item to consider.
Test item N=C(N)c1ccc(/C=C2/CC(C(=O)O)C/C(=C/c3ccc(C(=N)N)cc3)C2=O)cc1 (centres undefined) ; Prothrombin (Homo sapiens, UniProt P00734); reported pKi was < 4.30

---

TGT: Serine protease 1 (Bos taurus)
Sequence (P00760 whole entry): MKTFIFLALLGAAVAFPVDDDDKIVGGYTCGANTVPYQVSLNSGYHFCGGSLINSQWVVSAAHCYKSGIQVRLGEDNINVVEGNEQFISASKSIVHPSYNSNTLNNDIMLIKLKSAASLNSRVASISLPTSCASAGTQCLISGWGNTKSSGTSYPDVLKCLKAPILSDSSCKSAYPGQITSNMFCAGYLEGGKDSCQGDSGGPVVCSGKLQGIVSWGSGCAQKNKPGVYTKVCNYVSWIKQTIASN
TEST DESCRIPTION: In vitro inhibition of bovine trypsin(Trp).
MEASUREMENT TYPE: Ki (nM)

COMPOUND | TGT | Ki (nM)
N=C(N)c1ccc(/C=C2\CCC/C(=C\c3ccc(C(=N)N)cc3)C2=O)cc1 | Serine protease 1 (Bos taurus) | 170

1: N=C(N)c1ccc(/C=C2/CC(c3ccccc3)C/C(=C\c3ccc(C(=N)N)cc3)C2=O)cc1 (stereo not drawn)
2: CCOC(=O)N1C/C(=C/c2ccc(C(=N)N)cc2)C(=O)/C(=C\c2ccc(C(=N)N)cc2)C1
3: N=C(N)c1ccc(/C=C2/CCCCCC/C(=C\c3ccc(C(=N)N)cc3)C2=O)cc1
4: COC(=O)C1C/C(=C/c2ccc(C(=N)N)cc2)C(=O)/C(=C\c2ccc(C(=N)N)cc2)C1 (stereo not drawn)
5: C/N=C(\N)c1ccc(/C=C2\CCCC/C(=C\c3ccc(C(=N)N)cc3)C2=O)cc1
In: # sort list by recorded Ki, greatest to least Kindly provide the labels arranged according to the requested ordering.
Out: 5, 3, 1, 4, 2

Where do these numbers come from? They come from ChEMBL document CHEMBL1132552.
